# TARGET_OR_SYSTEM: T1, oligopeptide GHLDM (SEQ ID NO: 100)
# T1 construct: Synthetic peptide, part of Loop C of AQP3
# T1 peptide: GHLDM
# ASSAY: ELISA on coated peptide
# key: entry, value: binding signal (plate reader)

[
  {
    "BINDER": "Antibody J (antibody, mouse IgG2a, kappa, V domains shown, also called anti AQP3 antibody J) VH: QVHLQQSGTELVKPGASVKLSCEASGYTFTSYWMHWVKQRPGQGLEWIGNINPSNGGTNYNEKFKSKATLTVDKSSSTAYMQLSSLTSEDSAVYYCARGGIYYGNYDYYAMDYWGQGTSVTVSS VL: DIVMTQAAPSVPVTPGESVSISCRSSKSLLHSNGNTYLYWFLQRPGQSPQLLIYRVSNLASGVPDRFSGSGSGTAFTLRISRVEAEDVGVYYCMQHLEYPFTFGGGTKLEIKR",
    "binding signal (plate reader)": 0.043
  },
  {
    "BINDER": "SC-B6 (IgG) (antibody, V domains shown, also called anti AQP3 antibody SC-B6) VH: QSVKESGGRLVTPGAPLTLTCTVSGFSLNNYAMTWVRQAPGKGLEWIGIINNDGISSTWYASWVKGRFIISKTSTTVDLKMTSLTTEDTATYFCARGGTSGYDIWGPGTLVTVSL VL: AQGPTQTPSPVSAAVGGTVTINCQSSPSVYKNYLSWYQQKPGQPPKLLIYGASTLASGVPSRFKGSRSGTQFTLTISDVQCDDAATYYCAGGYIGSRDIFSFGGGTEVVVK",
    "binding signal (plate reader)": 0.097
  },
  {
    "BINDER": "Antibody C (antibody, mouse IgG2a, kappa, V domains shown, also called anti AQP3 antibody C) VH: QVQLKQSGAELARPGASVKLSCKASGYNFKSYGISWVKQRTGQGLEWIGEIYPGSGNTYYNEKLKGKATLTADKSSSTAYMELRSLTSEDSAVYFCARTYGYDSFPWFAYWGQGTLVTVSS VL: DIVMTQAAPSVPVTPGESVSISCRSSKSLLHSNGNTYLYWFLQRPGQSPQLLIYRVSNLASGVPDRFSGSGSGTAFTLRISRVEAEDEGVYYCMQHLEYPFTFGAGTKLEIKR",
    "binding signal (plate reader)": 0.043
  },
  {
    "BINDER": "SC-F8 (IgG) (antibody, V domains shown, also called anti AQP3 antibody SC-F8) VH: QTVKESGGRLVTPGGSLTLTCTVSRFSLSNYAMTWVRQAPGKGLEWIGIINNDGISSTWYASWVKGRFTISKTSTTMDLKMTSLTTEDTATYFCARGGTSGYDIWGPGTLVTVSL VL: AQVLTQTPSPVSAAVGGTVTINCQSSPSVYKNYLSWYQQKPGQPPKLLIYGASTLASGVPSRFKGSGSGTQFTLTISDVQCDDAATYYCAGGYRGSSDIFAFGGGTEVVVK",
    "binding signal (plate reader)": 0.06
  }
]

I would be grateful if you could share the reported binding signal (plate reader) for BC-H9 (IgG) (antibody, V domains shown, also called anti AQP3 antibody BC-H9) VH: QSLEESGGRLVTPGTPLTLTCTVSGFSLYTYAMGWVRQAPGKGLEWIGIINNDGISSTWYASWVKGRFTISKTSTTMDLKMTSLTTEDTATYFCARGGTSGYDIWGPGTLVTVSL VL: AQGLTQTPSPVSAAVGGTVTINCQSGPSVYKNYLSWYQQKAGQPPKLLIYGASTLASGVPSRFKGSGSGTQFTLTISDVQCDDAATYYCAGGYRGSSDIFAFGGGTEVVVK .
0.048

I would be grateful if you could share the reported binding signal (plate reader) for BC-B10 (IgG) (antibody, V domains shown, also called anti AQP3 antibody BC-B10) VH: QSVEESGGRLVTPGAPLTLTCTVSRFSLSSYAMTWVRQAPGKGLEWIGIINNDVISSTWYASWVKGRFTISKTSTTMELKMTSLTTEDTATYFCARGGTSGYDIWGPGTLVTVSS VL: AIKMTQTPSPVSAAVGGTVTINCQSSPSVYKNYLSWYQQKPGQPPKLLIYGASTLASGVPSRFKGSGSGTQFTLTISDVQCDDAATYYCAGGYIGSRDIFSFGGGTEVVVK .
0.123
